Quick note: these are IC50 numbers for system: Acetylcholinesterase (Homo sapiens)
Sequence (P22303 whole entry): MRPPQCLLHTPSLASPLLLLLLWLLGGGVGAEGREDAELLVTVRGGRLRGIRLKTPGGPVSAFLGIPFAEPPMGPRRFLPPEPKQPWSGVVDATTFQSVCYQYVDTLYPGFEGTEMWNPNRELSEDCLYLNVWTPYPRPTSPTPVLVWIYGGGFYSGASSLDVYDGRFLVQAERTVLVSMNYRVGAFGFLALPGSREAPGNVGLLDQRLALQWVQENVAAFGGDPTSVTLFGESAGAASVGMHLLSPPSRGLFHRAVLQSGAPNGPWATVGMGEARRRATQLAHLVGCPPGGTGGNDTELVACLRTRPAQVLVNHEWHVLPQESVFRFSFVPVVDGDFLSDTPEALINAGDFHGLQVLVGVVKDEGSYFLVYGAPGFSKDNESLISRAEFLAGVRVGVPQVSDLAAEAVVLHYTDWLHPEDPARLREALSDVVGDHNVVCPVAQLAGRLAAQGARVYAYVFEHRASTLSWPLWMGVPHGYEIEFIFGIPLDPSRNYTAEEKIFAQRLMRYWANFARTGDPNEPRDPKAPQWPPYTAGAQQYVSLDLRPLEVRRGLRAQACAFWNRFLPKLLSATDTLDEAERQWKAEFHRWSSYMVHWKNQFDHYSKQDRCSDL
# unit: nM | format: bare number

Check out these entries, answers already filled in.
O=C(NCCCCCNc1c2c(nc3ccccc13)CCCC2)c1c2ccccc2nc2ccccc12; 0.0076
Cc1cc(C)c(S(=O)(=O)Nc2ccc(C3C4=C(CC(C)(C)CC4=O)N(c4ccc(Br)cc4)C4=C3C(=O)CC(C)(C)C4)cc2)c(C)c1; 140

Proceed to the following item.
*Q* # input molecule: O=C(/C=C/c1ccc([N+](=O)[O-])cc1)NCCCCCCNc1c2c(nc3ccccc13)CCCC2 ; wanted: its IC50
*A* 2.7

Origin of measurements: ChEMBL document CHEMBL4325825
